Test system: EPO induced pSTAT5
Test: EPO-induced pSTAT5 in human whole blood (all events)
Type: cell-based
Settings: JAK2/JAK2, read-out: EPO induced pSTAT5, cellular potency IC50
Procedure: Human whole blood was collected from healthy donors via vein puncture into Vacutainer collection tubes containing sodium heparin in accordance with Pfizer protocols (Protocol No. GOHW RDP-01) approved by the Shulman Institutional Review Board. Blood was warmed to 37° C. priorto use. Human whole blood was aliquoted (90 μL/well) in 96-well, deep-well, V-bottom plates and treated with compounds (5 μL/well) at different concentrations up to 60 μM (0.2% DMSO final) at 37° C. for 60 minutes. […]
Readout label: IC50 (µM)
Quick reminder: number only, in µM, skip the unit.

Reference set, count: 3
[
  {
    "Compound": "CCCS(=O)(=O)N[C@H]1C[C@@H](N(C)c2ncnc3[nH]ccc23)C1 [Abrocitinib, reference compound]",
    "Readout label": "IC50",
    "Number": 7.18
  },
  {
    "Compound": "C[C@H](O)CS(=O)(=O)N[C@H]1C[C@@H](N(C)c2ncnc3[nH]ccc23)C1 (single isomer, unassigned)",
    "Readout label": "IC50",
    "Number": 9.47
  },
  {
    "Compound": "C[C@@H](O)CS(=O)(=O)N[C@H]1C[C@@H](N(C)c2ncnc3[nH]ccc23)C1 (single isomer, unassigned)",
    "Readout label": "IC50",
    "Number": 18.1
  }
]

Which IC50 is reported for this compound? `CN(c1ncnc2[nH]ccc12)[C@H]1C[C@@H](NS(=O)(=O)CCCO)C1`
9.75

====

Observed pIC50, system JAK2 (Homo sapiens, UniProt O60674).
Lab note — pIC50 values are minus log10 of concentrations in M.

Before answering, review these 2 worked examples.
[
  {
    "Molecule": "C[C@H](O)CS(=O)(=O)N[C@H]1C[C@@H](N(C)c2ncnc3[nH]ccc23)C1 (single isomer, unassigned) [IA (M2)]",
    "Measured target": "JAK2 (Homo sapiens, UniProt O60674)",
    "Readout label": "pIC50",
    "Number": 6.05
  },
  {
    "Molecule": "C[C@@H](O)CS(=O)(=O)N[C@H]1C[C@@H](N(C)c2ncnc3[nH]ccc23)C1 (single isomer, unassigned) [IC (M3)]",
    "Measured target": "JAK2 (Homo sapiens, UniProt O60674)",
    "Readout label": "pIC50",
    "Number": 5.64
  }
]

Now examine the next entry.
Data request, read-out pIC50, for CN(c1ncnc2[nH]ccc12)[C@H]1C[C@@H](NS(=O)(=O)CCCO)C1 [IB (M1)]
5.94
